Values from the RNAGym collection of RNA variant scans (doi:10.7554/elife.90254)

B1: LINE1-full (parent)
chain: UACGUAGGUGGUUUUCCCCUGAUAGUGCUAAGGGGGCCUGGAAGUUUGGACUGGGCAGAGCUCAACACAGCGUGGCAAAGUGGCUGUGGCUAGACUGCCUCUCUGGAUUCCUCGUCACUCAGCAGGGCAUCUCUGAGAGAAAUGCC

# Variants of: B1
# test-summary: self-cleavage, relative activity (ratio to wild type); higher = more cleavage; in vitro, sequencing; the parent is a self-cleaving ribozyme

| sequence-chain | self-cleavage |
| --- | --- |
| UACGUAGGUGGUUUUCCCCUGAUAGUGCUAAGGGGGCCUGGGAGUUUGGACUGGGCAGAGCUCAACACCGCGUGGCAAAGUGGCUGUGGCUAGACUGCCUCUCUGGAUUCCUCGUCACUCAGCAGGGCAUCUCUGAGAGAAAUGCC [A42G A69C] | 0.06 |
| UACGUAGGUGGUUUUCCCCUAAUAGUGCUAAGGGGGCCUGGAAGUUUGGACUGGGCAGAGCUCAACACAGCGUGGCAAAGUGGCUGUGGCUAGACUGCCUCUCUGGAUUCCCCGUCACUCAGCAGGGCAUCUCUGAGAGAAAUGCC [G21A U112C] | 1.02 |
| UACGUAGGUGGUUUUCCCCUGAUAGUGCUAAGGGGGCCUGGAAGUUUGGACUGGGCAGAGCUCAACACAGCGUGGCAAAGUGGCUGUGGCUAGACUGCCUCUCUGGAUUCCUCGUCACUCAGCUGGGCAUCACUGAGAGAAAUGCC [A124U U132A] | 1.56 |
| UACGUAGGUGGUUUUCCCCUGAUAGUGCUAAGGGGGCCUGGAAGUUUGGACUGGGCAGAGCUCAACGCAGCGAGGCAAAGUGGCUGUGGCUAGACUGCCUCUCUGGAUUCCUCGUCACUCAGCAGGGCAUCUCUGAGAGAAAUGCC [A67G U73A] | 0.24 |
| UACGUAGGUGGUUUUCCCCUGAUAGUGCUAAGGGGGCCUGGAAGUUUGGACUGGGCAGAGCUCAACACAGCGUGGCAAGGUGGCUGUGGCUAGACUGCCUCUCUGGAUUCCUCGUCACUCAGCACGGCAUCUCUGAGAGAAAUGCC [A79G G125C] | 1.28 |
| UACGUAGGUGGUUCUCCCCUGAUAGUGCUAAGGGGGCCUGGAAGUUUGGACUGGGCAGAGCUCAACACAGCGUGGCAAAGUGGCUGUGGCUAGACUGCCUCUCUGGAUUCCUCGUCACUCAGCAGGGCAUCUCUGAGGGAAAUGCC [U14C A138G] | 1.23 |
| UACGUAGGUGGUUUUCCCCUGAUAGUGCUAAGGGGGCCUGGAAGUUUAGACUGGGCAGAGCUCAACACAGCAUGGCAAAGUGGCUGUGGCUAGACUGCCUCUCUGGAUUCCUCGUCACUCAGCAGGGCAUCUCUGAGAGAAAUGCC [G48A G72A] | 0.96 |
| UACGUAGGUGGUUUUCCCCUGAUAGUGCUAAGGGGGCCUGGAAGUUUGGACUGGGCAGAGCUCAACACAGCGUGGCAAAGUGGCUGUGGCUAGACUGCCUCUCUGGGUACCUCGUCACUCAGCAGGGCAUCUCUGAGAGAAAUGCC [A107G U109A] | 1.83 |
| UACGUAGGUGGUUUUCUCCUGAUAGUGCUAAGGGGGCCUGGAAGUUUGGACUGGGCAGAGCUCAACACAGCGUGGCAAAGUGGCUGUGGCUAGACUGCCUCUCUGGAUUCCUCGCCACUCAGCAGGGCAUCUCUGAGAGAAAUGCC [C17U U115C] | 1.48 |
| UACGUAGGUGGUUUUCCCCUGAUAGUGCUAAGGGGGCCUGGAAGUUUGGACUGGGCAGAGCUCAACACAGCGUGGCAAAGUGGCUGUGGCUAGACUGCCUCUCCGGAUGCCUCGUCACUCAGCAGGGCAUCUCUGAGAGAAAUGCC [U104C U109G] | 1.53 |
